System: SK-MEL-2 melanoma
Test: NCI tumour cell line growth inhibition, 48 h
Each record here notes measured GI50.
Measured property: GI50

>>> measurement("CC(=O)/C=C/c1ccc(OCc2ccc(Cl)cc2)cc1")
"473 µM"
>>> measurement("NC(CSSCC(N)C(=O)O)C(=O)O (configuration not stated)")
"> 100 µM"
>>> measurement("COc1ccc(C(=O)c2sc3nc(-c4cccs4)ccc3c2N)cc1OC")
"3.29 µM"
>>> measurement("CC(=O)O[C@H]1CC[C@@]2(C)C(=C/C(=N/OCCN3CCCC3)[C@H]3[C@@H]4CC[C@H](OC(C)=O)[C@@]4(C)CC[C@@H]32)C1")
"26.3 µM"
>>> measurement("CCCCOC1OC(COC(=O)C(C)C)C(OC(=O)C(C)C)C(O)C1OC1OC(C)C(OC(=O)CCC)C(OC(=O)C(C)C)C1O (configuration not stated)")
"36.2 µM"
>>> measurement("COCCOCCOCc1n(Cc2ccc3ccccc3n2)c2ccccc2[n+]1Cc1ccc2ccccc2n1")
"0.447 µM"
>>> measurement("Cc1nc2cc(Nc3nc(Nc4ccc(F)cc4)nc(N4CCOCC4)n3)ccc2n1Cc1ccccc1")
"2.49 µM"
>>> measurement("CN(CCC(=O)/C(=C\\c1ccccc1)c1ccc(Cl)cc1)Cc1ccccc1")
"2.6 µM"
>>> measurement("Cn1cc(C2=C(Nc3ccccc3)C(=O)NC2=O)c2ccccc21")
"> 25 µM"
>>> measurement("O=C1/C(=C/c2ccc(O)cc2)COc2ccc(O)c(O)c21")
"6.21 µM"
>>> measurement("CN(C)c1ccc(/C=N/S(=O)(=O)c2ccc(-n3c(-c4ccccc4)nc4c(Br)cc(Br)cc4c3=O)cc2)cc1")
"23.6 µM"
>>> measurement("CN1CCN(c2nc(-c3csc(-c4cccs4)n3)cc3ccccc23)CC1")
"1.47 µM"
>>> measurement("Cc1cccc2c3c(sc12)C(c1ccc(F)cc1)C(C#N)=C(N)O3 (configuration not stated)")
"1.7 µM"
>>> measurement("O=C1c2cccnc2C(=O)c2c1c(C(=O)OCCCN1CCCCC1)c1ccccn21")
"0.0303 µM"
>>> measurement("COc1ccc(-c2csc(NC(=O)CN3CCN(c4cc5c(cc4F)c(=O)c(C(=O)O)cn5C4CC4)CC3)n2)cc1")
"2.58 µM"
>>> measurement("COc1ccc(-c2c3c(nc4n[nH]c(-c5ccc(Cl)cc5)c24)-c2ccccc2C(=O)C3=O)cc1")
"1.56 µM"
>>> measurement("Cc1cc(O)c(C2=NN(c3ccc(S(N)(=O)=O)cc3)C(/C=C/c3ccccc3)C2)cc1Cl (configuration not stated)")
"16.8 µM"
